target_entity: FGFR1 kinase (Homo sapiens (Human))
procedure_text: FGFR1 TR-FRET kinase assay
Assay type: biochemical
test_settings: 1000 nM compound
Experimental: Compounds were screened in the TR-FRET assay with FGFR1 kinase. 5 ng of FGFR1 [Upstate, USA] kinase was used for assay. The compound was incubated with the kinase for 30 minutes at RT. […] The Eu-labelled antiphospho-tyrosine antibody [Perkin Elmer, USA] was added at 0.5 nM and the fluorescence emission at 615 nm/665 nm [excitation at 340 nm] was measured. […] The fluorescence was measured in Perkin Elmer Wallac 1420 Multilabel Counter Victor 3. […]

{"columns": ["smiles_representation", "inhibition at 1 µM / %"],
 "data": [
  ["CCS(=O)(=O)Nc1cc(-c2ccc(F)cc2F)cc(-n2cnc3cc(-c4cnn(C)c4)cnc32)c1", 97],
  ["CC(=O)Nc1cc(-n2cccn2)cc(-n2cnc3cc(-c4cnn(CC5CC5)c4)ccc32)c1", 91],
  ["Cn1cc(-c2ccc3c(c2)ncn3-c2cc(NS(=O)(=O)N3CCCCC3)cc(-n3cccn3)c2)cn1", 94],
  ["CC(C)(O)CCn1cc(-c2ccc3c(c2)ncn3-c2cc(NS(=O)(=O)C3CC3)cc(-c3ccc(F)cc3F)c2)nn1", 99]
]}

* * *

target_entity: FGFR1 kinase (Homo sapiens (Human), UniProt P11362)
Sequence (P11362 22-822): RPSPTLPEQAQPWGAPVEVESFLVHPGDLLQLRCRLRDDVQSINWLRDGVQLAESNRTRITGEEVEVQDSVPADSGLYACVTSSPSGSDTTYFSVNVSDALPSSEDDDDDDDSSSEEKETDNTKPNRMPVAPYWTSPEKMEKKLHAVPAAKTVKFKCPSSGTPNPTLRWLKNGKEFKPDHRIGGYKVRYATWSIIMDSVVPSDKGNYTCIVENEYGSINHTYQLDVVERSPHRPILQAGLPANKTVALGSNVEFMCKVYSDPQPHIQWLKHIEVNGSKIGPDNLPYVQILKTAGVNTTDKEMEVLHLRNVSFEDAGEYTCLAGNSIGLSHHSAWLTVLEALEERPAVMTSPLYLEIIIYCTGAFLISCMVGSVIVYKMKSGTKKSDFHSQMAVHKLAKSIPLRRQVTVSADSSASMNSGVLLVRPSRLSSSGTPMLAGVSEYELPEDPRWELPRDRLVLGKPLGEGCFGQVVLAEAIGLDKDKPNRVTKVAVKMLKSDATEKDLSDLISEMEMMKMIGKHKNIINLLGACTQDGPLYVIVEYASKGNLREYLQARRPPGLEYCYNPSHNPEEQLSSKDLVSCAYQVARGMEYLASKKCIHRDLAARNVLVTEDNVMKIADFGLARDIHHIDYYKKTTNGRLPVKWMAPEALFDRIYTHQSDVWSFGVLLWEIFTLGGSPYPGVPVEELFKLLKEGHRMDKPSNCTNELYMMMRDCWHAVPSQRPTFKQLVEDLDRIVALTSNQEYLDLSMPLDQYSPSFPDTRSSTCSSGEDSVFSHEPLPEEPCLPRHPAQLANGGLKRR
procedure_text: FGFR1 TR-FRET kinase assay
Type: biochemical
test_settings: 1000 nM compound
Method: Compounds were screened in the TR-FRET assay with FGFR1 kinase. 5 ng of FGFR1 [Upstate, USA] kinase was used for assay. The compound was incubated with the kinase for 30 minutes at RT. […] The Eu-labelled antiphospho-tyrosine antibody [Perkin Elmer, USA] was added at 0.5 nM and the fluorescence emission at 615 nm/665 nm [excitation at 340 nm] was measured. […] The fluorescence was measured in Perkin Elmer Wallac 1420 Multilabel Counter Victor 3. […]
readout: inhibition at 1 µM (%)

{"columns": ["smiles_representation", "target_entity", "readout", "unit_string", "reported_result"],
 "data": [
  ["Cn1cc(-c2ccc3c(c2)ncn3-c2cc(Nc3ncccn3)cc(-c3ccc(F)cc3F)c2)cn1", "FGFR1 kinase (Homo sapiens (Human), UniProt P11362)", "inhibition at 1 µM", "%", 80],
  ["Cn1cc(-c2cnc3c(c2)ncn3-c2cc(NS(=O)(=O)c3ccccc3)cc(-c3ccc(F)cc3F)c2)cn1", "FGFR1 kinase (Homo sapiens (Human), UniProt P11362)", "inhibition at 1 µM", "%", 92],
  ["CS(=O)(=O)Nc1cc(-c2ncccc2F)cc(-n2cnc3cc(-c4cnn(CCN5CCOCC5)c4)ccc32)c1", "FGFR1 kinase (Homo sapiens (Human), UniProt P11362)", "inhibition at 1 µM", "%", 99],
  ["CC(=O)Nc1cc(-c2ccc(C)o2)cc(-n2cnc3cc(-c4cnn(CCN(C)C)c4)ccc32)c1", "FGFR1 kinase (Homo sapiens (Human), UniProt P11362)", "inhibition at 1 µM", "%", 96],
  ["O=C(NCc1ccco1)Nc1cc(-n2cccn2)cc(-n2cnc3cc(-n4cccn4)ccc32)c1", "FGFR1 kinase (Homo sapiens (Human), UniProt P11362)", "inhibition at 1 µM", "%", 94],
  ["O=S(=O)(Nc1cc(-c2ccc(F)cc2F)cc(-n2cnc3cc(-c4cnco4)ccc32)c1)c1ccccc1", "FGFR1 kinase (Homo sapiens (Human), UniProt P11362)", "inhibition at 1 µM", "%", 93],
  ["CC(C)S(=O)(=O)Nc1cc(-c2ccc(F)cc2F)cc(-n2cnc3cc(-c4cnco4)ccc32)c1", "FGFR1 kinase (Homo sapiens (Human), UniProt P11362)", "inhibition at 1 µM", "%", 93],
  ["CC(=O)Nc1cc(-c2ccc(F)cc2)cc(-n2cnc3cc(-c4cnn(CCC(C)(C)O)c4)ccc32)c1", "FGFR1 kinase (Homo sapiens (Human), UniProt P11362)", "inhibition at 1 µM", "%", 97],
  ["COc1ccc(-c2ccc3c(c2)ncn3-c2cc(NC(C)=O)cc(-c3ccc(F)cc3)c2)cn1", "FGFR1 kinase (Homo sapiens (Human), UniProt P11362)", "inhibition at 1 µM", "%", 87],
  ["CC(=O)Nc1cc(-c2ccc(F)cc2)cc(-n2cnc3cc(-n4cccn4)ccc32)c1", "FGFR1 kinase (Homo sapiens (Human), UniProt P11362)", "inhibition at 1 µM", "%", 99],
  ["CC(=O)Nc1cc(-n2cccc2)cc(-n2cnc3cc(-c4cn(CCC(C)(C)O)nn4)ccc32)c1", "FGFR1 kinase (Homo sapiens (Human), UniProt P11362)", "inhibition at 1 µM", "%", 97],
  ["CC(=O)Nc1cc(-c2ccc(F)cc2F)cc(-n2cnc3cc(C4=NCCN4)ccc32)c1", "FGFR1 kinase (Homo sapiens (Human), UniProt P11362)", "inhibition at 1 µM", "%", 89],
  ["CC(=O)Nc1cc(-c2ccc(F)cc2F)cc(-n2cnc3cc(-c4cnco4)ccc32)c1", "FGFR1 kinase (Homo sapiens (Human), UniProt P11362)", "inhibition at 1 µM", "%", 99],
  ["CC(=O)Nc1cc(-c2ccc(F)cc2F)cc(-n2cnc3cc(-c4ccc(F)nc4)cnc32)c1", "FGFR1 kinase (Homo sapiens (Human), UniProt P11362)", "inhibition at 1 µM", "%", 86]
]}
